Catalogue of molecules with associated TGI
- Test system: OVCAR-8 ovarian
- Method: NCI tumour cell line growth inhibition, 48 h

Record excerpt, results attached:
- O=C(NCc1ccco1)c1cccc(NC2=C(Cl)C(=O)N(Cc3ccccc3)C2=O)c1: > 100 µM
- CC[P+]1(c2ccccc2)[C@@H](C)CC[C@@H]1C: > 100 µM
- COc1cc(-n2ccnc2)cc(OC)c1OC: > 100 µM
- CN(C(=O)Cc1cc(Cl)c(Cl)cc1NC(=O)CN)[C@H]1CCCC[C@@H]1N1CCCC1: > 100 µM
- Cc1cn(-c2ccc(S(C)(=O)=O)cc2)c(-c2ccc(Cl)cc2)n1: > 100 µM

Query: Item under review: `Cc1nc2sccn2c1C(=O)NC(=O)Nc1ccc(Cl)cc1` . Reported TGI?
Reply: > 100 µM
